Test system: antibody 38C2
EXPERIMENT NOTES: antibody 38C2-catalyzed deuterium exchange (deuteration) of ketones and aldehydes in D2O, kinetics by GCMS or 1H-NMR
Assay type: biochemical
ASSAY CONTEXT: 38C2-catalyzed deuteration, D2O, pD 7.4, 25° C.; Lineweaver-Burk analysis (GCMS)
MEASURED QUANTITY: Km (mM)

{"COMPOUND": "CCCCCCC=O [Heptanal, 5, Heptanal]", "MEASURED QUANTITY": "Km", "REPORTED": 3.5}
{"COMPOUND": "CCCCCCCCCC=O [Decanal, 6, Decanal]", "MEASURED QUANTITY": "Km", "REPORTED": 0.68}
{"COMPOUND": "O=C1CCCCCC1 [Cycloheptanone, 10, Cycloheptanone]", "MEASURED QUANTITY": "Km", "REPORTED": 4.6}
{"COMPOUND": "O=C1CCCCC1 [Cyclohexanone, 9, Cyclohexanone]", "MEASURED QUANTITY": "Km", "REPORTED": 5.2}
{"COMPOUND": "CCCCCC(C)=O [2-Heptanone, 3, 2-Heptanone]", "MEASURED QUANTITY": "Km", "REPORTED": 16}
